Sourced from PubChem BioAssay (Tox21)

test details: qHTS assay to identify small molecule antagonists of the sonic hedgehog signaling (Shh) pathway - cell viability counter screen (AID 1259367); note: nearly all actives have a fitted effect of over 55% in size
condition info: NIH/3T3 Gli1-Luc viability, CellTiter-Fluor, 24 h; series mostly up to 92.4 µM
Inconclusive results are not listed. The source made the active and inactive calls. Calls come from the whole dose curve; as a rule, active = well fitted cell-killing curve with a large enough effect in the repeat runs; inconclusive = weak or mixed curves, or effect the other way; inactive = no such curve, though single readings can be large or run the other way.
Outcomes you can answer with include only these: yes for active, no for inactive

Worked cases, answers included:
compound: c1ccc(C2CO2)cc1 (stereo not given)
cat: no

compound: CC(C)COC(=O)c1ccccc1C(=O)OCC(C)C
cat: no

compound: CC(C)(c1ccc(OCC2CO2)cc1)c1ccc(OCC2CO2)cc1 (stereo not given)
cat: no

compound: O=C1C(Cl)=C(Cl)C(=O)c2ccccc21
cat: yes

compound: CC(O)CN(CC(C)O)CC(C)O (stereo not given)
cat: no

compound: Cc1cc(Cl)ccc1N=CN(C)C
cat: no

compound: Cn1c(-c2ccccc2)cc(-c2ccccc2)[n+]1C
cat: no

compound: CN(C)c1ccccc1
cat: no

compound: CSc1nc(NC(C)C)nc(NC(C)C)n1
cat: no

From here, focus on the item given below.
Identify the outcome logged in this assay for the compound shown: `O=S(=O)(O)C(F)(F)C(F)(F)C(F)(F)C(F)(F)C(F)(F)C(F)(F)C(F)(F)C(F)(F)F`
no

* * *

test details: qHTS assay to identify small molecule antagonists of the peroxisome proliferator-activated receptor delta (PPARd) signaling pathway - cell viability counter screen (AID 743213); note: % is set by controls: 0 for no effect and ±100 for the full control effect; nearly all actives have a fitted effect of over 50% in size
condition info: PPARd-bla HEK293H viability, CellTiter-Glo luminescence, 17 h; series mostly up to 62 µM
Results filed as inconclusive are left out. Activity calls are given as the source filed them. The call rests on the fitted dose curve; in most records, active means well fitted cell-killing curve with a large enough effect in the repeat runs; inconclusive means weak or mixed curves; inactive means no such curve, though single readings can be large or run the other way.
Outcomes you can answer with include only these: 1 = active, 0 = inactive

molecule: CS(=O)(=O)NC(=O)c1cc(Oc2ccc(C(F)(F)F)cc2Cl)ccc1[N+](=O)[O-]
cat: 0
--
molecule: CC(C)COC(=O)c1ccccc1C(=O)OCC(C)C
cat: 0
--
molecule: N#Cc1cccnc1
cat: 0

Identify the outcome logged in this assay for the molecule shown: `O=[N+]([O-])c1ccc(Nc2ccccc2)cc1`
0

Also, `ClC(Cl)(Cl)Br` please.
0

* * *

test details: qHTS assay to identify small molecule agonists of the RXR signaling pathway - cell viability counter screen (AID 1159529); note: nearly all actives have a fitted effect of over 50% in size
condition info: RXR-alpha-bla HEK293T viability, CellTiter-Glo, 16 h; series mostly up to 76.8 µM
Records with an inconclusive call do not appear. Active and inactive are the calls of the source. Calls come from the whole dose curve; as a rule, active = well fitted cell-killing curve with a large enough effect in the repeat runs; inconclusive = weak or mixed curves, or effect the other way; inactive = no such curve, though single readings can be large or run the other way.
Outcomes you can answer with include only these: active, inactive

molecule: Nc1ccc([N+](=O)[O-])cc1N
cat: inactive
//
molecule: CC(C)Nc1nc(Cl)nc(NC(C)C)n1
cat: inactive
//
molecule: CC1(C)Cc2cccc(O)c2O1
cat: inactive
//
molecule: CCC[CH2][Sn]([Cl])([CH2]CCC)[CH2]CCC
cat: active
//
molecule: COP(=S)(OC)Oc1ccc(Sc2ccc(OP(=S)(OC)OC)cc2)cc1
cat: inactive

Identify the outcome logged in this assay for the molecule shown: `COc1ccc(C=O)cc1OC`
inactive

Also, `CCCCCCCCCCCCCl` please.
inactive

Also, CC(O)CN(CC(C)O)CC(C)O (centres undefined) please.
inactive

Also, `ClCC(Cl)CCl` please.
inactive

Also, `COc1ccc(CO)cc1` please.
inactive

Also, `CCOP(=S)(OCC)SCSC(C)(C)C` please.
inactive

Also, `CC(C)COC(=O)c1ccccc1C(=O)OCC(C)C` please.
inactive

Also, `N#CCCCCC#N` please.
inactive

Also, `Clc1ccccc1-c1nnc(-c2ccccc2Cl)nn1` please.
inactive

* * *

test details: qHTS assay to identify small molecule antagonists of the sonic hedgehog signaling (Shh) pathway (AID 1259369); note: nearly all actives have a fitted effect of over 45% in size
condition info: NIH/3T3 Gli1-Luc reporter, Shh antagonist, luminescence 24 h; series mostly up to 92.4 µM
Results filed as inconclusive are left out. The source made the active and inactive calls. Calls follow the shape of the full dose curve.
Outcomes you can answer with include only these: true (1) for active, false (0) for inactive

Worked cases, answers included:
smi: CCCCCCCCCCCCCl
cat: false (0)
//
smi: Clc1ccc(C(Cl)(Cl)Cl)cc1
cat: false (0)
//
smi: CNC(=O)Oc1cccc2c1OC(C)(C)C2
cat: false (0)
//
smi: ClCc1ccccn1
cat: false (0)
//
smi: CC(C)CON=O
cat: false (0)

Identify the outcome logged in this assay for the compound shown: `CCNc1nc(Cl)nc(NC(C)(C)C#N)n1`
true (1)

* * *

target under test: Estrogen receptor (Homo sapiens) (UniProt P03372)
Sequence (P03372 whole entry, looked up): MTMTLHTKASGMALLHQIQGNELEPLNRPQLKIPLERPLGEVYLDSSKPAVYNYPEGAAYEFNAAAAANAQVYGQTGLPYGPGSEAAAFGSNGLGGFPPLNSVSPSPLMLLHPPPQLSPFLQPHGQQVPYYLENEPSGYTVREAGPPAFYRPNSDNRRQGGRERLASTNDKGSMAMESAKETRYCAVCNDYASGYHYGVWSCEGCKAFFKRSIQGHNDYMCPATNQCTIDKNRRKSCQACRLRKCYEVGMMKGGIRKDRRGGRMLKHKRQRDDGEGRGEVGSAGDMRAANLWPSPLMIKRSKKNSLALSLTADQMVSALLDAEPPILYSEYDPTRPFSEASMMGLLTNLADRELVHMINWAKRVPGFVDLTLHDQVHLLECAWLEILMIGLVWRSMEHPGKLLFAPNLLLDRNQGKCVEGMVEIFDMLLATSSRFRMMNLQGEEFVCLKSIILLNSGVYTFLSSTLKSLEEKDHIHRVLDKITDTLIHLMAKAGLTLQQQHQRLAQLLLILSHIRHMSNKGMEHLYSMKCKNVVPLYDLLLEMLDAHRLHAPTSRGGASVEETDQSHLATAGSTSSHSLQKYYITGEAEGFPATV
test details: qHTS assay to identify small molecule antagonists of the estrogen receptor alpha (ER-alpha) signaling pathway (AID 743069); note: % is set by controls: 0 for no effect and ±100 for the full control effect
condition info: HEK293 ER-alpha-UAS-bla, beta-lactamase ratio, antagonist mode; series mostly up to 69.4 µM
Inconclusive results are not listed. Calls of active or inactive are those of the source. Calls follow the shape of the dose curve; as a rule, active = well fitted curve in the direction sought with a large enough effect in the signal ratio in the repeat runs (not every such curve was filed as active); inconclusive = weak or mixed curves, or effect the other way; inactive = no such curve, though single readings can be large or run the other way; the % refers to the signal ratio.
Outcomes you can answer with include only these: 1 (yes) for active, 0 (no) for inactive

Worked cases, answers included:
compound: CNC(=O)Oc1cccc2c1OC(C)(C)C2
cat: 0 (no)

compound: COP(=S)(OC)SCn1nnc2ccccc2c1=O
cat: 0 (no)

compound: CCCCOCC1CO1 (stereo not drawn)
cat: 0 (no)

compound: CNC(=O)CSP(=S)(OC)OC
cat: 0 (no)

Identify the outcome logged in this assay for the compound shown: `CCCCOCCOC(C)=O`
0 (no)

Also, `C[N+](C)(C)CC(=O)[O-]` please.
0 (no)

Also, `CCCCCCCCCc1ccc(O)cc1` please.
0 (no)

Also, `ClCc1ccccn1` please.
0 (no)

Also, CC(C)(c1ccc(OCC2CO2)cc1)c1ccc(OCC2CO2)cc1 (stereo not drawn) please.
0 (no)

Also, CC1(C)C(C(=O)OC(C#N)c2cccc(Oc3ccccc3)c2)C1(C)C (stereo not drawn) please.
0 (no)

* * *

target under test: Thyrotropin receptor (Homo sapiens) (UniProt P16473)
Sequence (P16473 whole entry, looked up): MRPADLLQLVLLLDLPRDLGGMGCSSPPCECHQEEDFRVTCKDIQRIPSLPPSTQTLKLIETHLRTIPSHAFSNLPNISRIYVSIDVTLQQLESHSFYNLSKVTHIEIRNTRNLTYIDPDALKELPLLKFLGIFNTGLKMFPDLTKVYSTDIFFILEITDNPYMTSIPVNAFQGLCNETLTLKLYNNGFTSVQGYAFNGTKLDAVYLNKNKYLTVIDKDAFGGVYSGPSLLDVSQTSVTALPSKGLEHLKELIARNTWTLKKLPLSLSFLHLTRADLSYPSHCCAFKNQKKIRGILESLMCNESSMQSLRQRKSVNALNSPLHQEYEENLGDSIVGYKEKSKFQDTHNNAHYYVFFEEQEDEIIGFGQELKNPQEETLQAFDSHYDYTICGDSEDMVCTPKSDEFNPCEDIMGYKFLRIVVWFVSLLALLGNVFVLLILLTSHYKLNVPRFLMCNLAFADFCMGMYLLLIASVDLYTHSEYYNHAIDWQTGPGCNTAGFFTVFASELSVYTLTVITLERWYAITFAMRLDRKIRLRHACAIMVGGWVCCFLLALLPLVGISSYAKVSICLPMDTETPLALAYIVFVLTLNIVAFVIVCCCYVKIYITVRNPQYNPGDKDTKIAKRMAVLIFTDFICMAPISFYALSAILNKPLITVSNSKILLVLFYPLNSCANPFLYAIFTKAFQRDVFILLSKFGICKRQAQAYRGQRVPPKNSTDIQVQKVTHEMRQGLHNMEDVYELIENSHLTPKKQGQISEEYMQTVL
test details: qHTS assay to identify small molecule antagonists of the thyroid stimulating hormone receptor (TSHR) signaling pathway (AID 1259385); note: nearly all actives have a fitted effect of over 20% in size
condition info: TSHR-HEK293 cAMP HTRF, TSH-stimulated antagonist mode; series mostly up to 92.4 µM
Inconclusive results are not listed. The source made the active and inactive calls. Calls come from the whole dose curve.
Outcomes you can answer with include only these: active, inactive

Worked cases, answers included:
compound: COC(=O)Nc1nc2ccccc2[nH]1
target under test: Thyrotropin receptor (Homo sapiens) (UniProt P16473)
cat: inactive

compound: CC(C)(c1ccc(OCC2CO2)cc1)c1ccc(OCC2CO2)cc1 (stereo unspecified)
target under test: Thyrotropin receptor (Homo sapiens) (UniProt P16473)
cat: inactive

compound: CCCCCCCCCCCCCl
target under test: Thyrotropin receptor (Homo sapiens) (UniProt P16473)
cat: inactive

compound: CC1(C)C(C(=O)OC(C#N)c2cccc(Oc3ccccc3)c2)C1(C)C (stereo unspecified)
target under test: Thyrotropin receptor (Homo sapiens) (UniProt P16473)
cat: active

compound: S=c1[nH]c2ccccc2[nH]1
target under test: Thyrotropin receptor (Homo sapiens) (UniProt P16473)
cat: inactive

Identify the outcome logged in this assay for the compound shown: C=CC(Cl)CCl (stereo unspecified)
inactive

* * *

test details: qHTS assay to identify small molecule antagonists of the estrogen receptor alpha (ER-alpha) signaling pathway using the BG1 cell line (AID 743080);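 note: BG1 cells stimulated with 17beta-estradiol alongside compound; nearly all actives have a fitted effect of over 25% in size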
condition info: BG1Luc4E2 ERE-luciferase antagonist mode, luminescence; series mostly up to 70.3 µM
Inconclusive results are not listed. Activity calls are given as the source filed them. Calls come from the whole dose curve.
Outcomes you can answer with include only these: active, inactive

Worked cases, answers included:
smi: CCOP(=S)(OCC)SCSC(C)(C)C
cat: inactive
//
smi: C[C@]12CC[C@H]3[C@@H](CCC4=CC(=O)CC[C@@H]43)[C@@H]1CC[C@@H]2O
cat: inactive
//
smi: CCCCCCCCCc1ccc(O)cc1
cat: inactive
//
smi: CCOS(=O)(=O)OCC
cat: inactive
//
smi: COP(=S)(OC)Oc1ccc(S(=O)(=O)N(C)C)cc1
cat: inactive

Identify the outcome logged in this assay for the molecule shown: `CC(C)(O)C(=O)Nc1ccc([N+](=O)[O-])c(C(F)(F)F)c1`
active

Also, `CC(C)CON=O` please.
inactive

Also, `c1ccc2c(c1)Nc1ccccc1S2` please.
inactive

Also, `CCCCCCCCCCCCCl` please.
inactive

* * *

test details: qHTS assay for identifying genotoxic compounds that show differential cytotoxicity against isogenic chicken DT40 cell lines with known DNA damage response pathways - wild type cell line (AID 743012); note: nearly all actives have a fitted effect of over 60% in size; note: potency is the fitted concentration of half-maximal effect
condition info: DT40 wild type chicken cells viability, CellTiter-Glo, 40 h; series mostly up to 68.4 µM
Results filed as inconclusive are left out. Activity calls are given as the source filed them. Calls come from the whole dose curve; as a rule, active = well fitted cell-killing curve with a large enough effect in the repeat runs; inconclusive = weak or mixed curves, or effect the other way; inactive = no such curve, though single readings can be large or run the other way.
measure name: Potency

compound: CC(C)=CC1C(C(=O)OCc2cccc(Oc3ccccc3)c2)C1(C)C (configuration not stated)
Potency: inactive
//
compound: COc1ccc(CO)cc1
Potency: inactive
//
compound: Clc1ccccc1-c1nnc(-c2ccccc2Cl)nn1
Potency: inactive
//
compound: CNC(=O)Oc1cccc2c1OC(C)(C)C2
Potency: inactive
//
compound: CC(C)(C#N)N=NC(C)(C)C#N
Potency: inactive
//
compound: CCOP(=S)(OCC)SCn1c(=O)oc2cc(Cl)ccc21
Potency: 27.3 µM (active)

Form field: reported Potency of `CN(C)c1nc(=O)n(C2CCCCC2)c(=O)n1C`
inactive

Also, `CN(C)c1ccccc1` please.
inactive

Also, `CCNCC` please.
inactive

Also, `Nc1ccc2ccccc2c1` please.
inactive

Also, CC(C)(c1ccc(OCC2CO2)cc1)c1ccc(OCC2CO2)cc1 (configuration not stated) please.
24.3 µM (active)

Also, `Nc1ccc([N+](=O)[O-])cc1N` please.
27.3 µM (active)

Also, CCCCOCC1CO1 (configuration not stated) please.
inactive

Also, CCC1(c2ccc(N)cc2)CCC(=O)NC1=O (configuration not stated) please.
inactive
